This section presents compounds with their documented IC50 values.
- Assay method text: Peroxynitrite scavenging activity (oxidation of dihydrorhodamine 123)
- Assay type: biochemical
- Details: oxidation of dihydrorhodamine 123 by peroxynitrite, phosphate buffer pH 7.4; read-out: 50% Inhibitory concentration on oxidation (IC50)
- Procedure: This test was performed by estimating the antioxidative effect of the test substance using peroxynitrite quantitative method as a test system with dihydrorhodamine 123 so as to confirm the ability of the 7-aminoquinolinone derivatives of the present invention to scavenge peroxynitrite. […] To 20 μL of peroxynitrite solution (manufactured by DOJINDO LABORATORIES), 1980 μL of 0.1 mol/L sodium hydroxide was added and the mixture was diluted 100 times. […] Concentration(mmol/L)=(absorbance/1670)×100×1000 […]
Readout label: IC50 (nM)

INSERT INTO measurements (compound, readout_label, readout_number) VALUES
  ('CCCCCCNc1ccc2c(O)c(OC)c(=O)[nH]c2c1 [Compound 204]', 'IC50', 890),
  ('CCCCCCn1c(=O)c(OC)c(O)c2ccc(NCC)cc21 [Compound 330]', 'IC50', 790),
  ('CCCCNc1ccc2c(OC)c(O)c(=O)n(CC)c2c1 [Compound 276]', 'IC50', 820),
  ('CCCCCCCCn1c(=O)c(OC)c(O)c2ccc(N)cc21 [Compound 173]', 'IC50', 890),
  ('CCCCCCCCOc1c(O)c2ccc(NC(C)=O)cc2n(C)c1=O [Compound 396]', 'IC50', 940),
  ('COc1cc(C=CC(=O)Nc2ccc3c(O)c(OCC=C(C)CCC=C(C)C)c(=O)n(C)c3c2)cc(OC)c1O [Compound 553]', 'IC50', 980),
  ('CCCCOc1c(O)c2ccc(N(C)C)cc2n(CCCC)c1=O [Compound 303]', 'IC50', 840),
  ('CCCCCCCCOc1c(O)c2ccc(N)cc2n(CC)c1=O [Compound 87]', 'IC50', 840);

* * *

This section presents compounds with their documented IC50 values.
- Assay method text: Peroxynitrite scavenging activity (oxidation of dihydrorhodamine 123)
- Format: biochemical
- Details: oxidation of dihydrorhodamine 123 by peroxynitrite, phosphate buffer pH 7.4; read-out: 50% Inhibitory concentration on oxidation (IC50)
Readout label: IC50

INSERT INTO assay_data (smiles_record, result) VALUES
  ('COc1c(OC(C)=O)c(=O)n(C)c2cc(N)ccc12', '960 nM'),
  ('CCCCCCCCn1c(=O)c(O)c(OC)c2ccc(N)cc21', '940 nM'),
  ('CCCCn1c(=O)c(O)c(OC)c2ccc(N(C)C)cc21', '800 nM'),
  ('CCCCCCOc1c(O)c(=O)n(C)c2cc(NC(=O)C=Cc3cc(OC)c(O)c(OC)c3)ccc12', '890 nM'),
  ('CCCCCCCCn1c(=O)c(OC)c(O)c2ccc(NCC)cc21', '850 nM'),
  ('CCNc1ccc2c(O)c(OC)c(=O)n(C)c2c1', '880 nM'),
  ('COc1c(O)c2ccc(NC(=O)c3ccccc3)cc2n(C)c1=O', '910 nM'),
  ('CCCCCCCCOc1c(O)c2ccc(NC(=O)c3ccccc3)cc2n(C)c1=O', '830 nM'),
  ('CCCCCCOc1c(O)c2ccc(N)cc2n(C)c1=O', '880 nM'),
  ('C=CCOc1c(O)c2ccc(N)cc2n(C)c1=O', '1050 nM'),
  ('CCCCCCCCOc1c(O)c2ccc(N)cc2n(C)c1=O', '960 nM'),
  ('CCCCCCOc1c(O)c2ccc(N)cc2n(CCCCCC)c1=O', '790 nM'),
  ('CCCCCCOc1c(O)c2ccc(NC(=O)C=Cc3ccc(O)c(OC)c3)cc2n(C)c1=O', '760 nM'),
  ('CCCCCCOc1c(O)c(=O)n(C)c2cc(NC(C)=O)ccc12', '1010 nM'),
  ('COc1cc(C=CC(=O)Nc2ccc3c(O)c(OC)c(=O)n(C)c3c2)cc(OC)c1O', '790 nM'),
  ('CCCCCCCCOc1c(O)c2ccc(NC(=O)C=Cc3cc(OC)c(O)c(OC)c3)cc2n(C)c1=O', '710 nM'),
  ('CCCCCCOc1c(O)c2ccc(NC=O)cc2n(CCCC)c1=O', '940 nM'),
  ('CCCCCCOc1c(O)c2ccc(NC(=O)C=Cc3cc(OC)c(O)c(OC)c3)cc2n(C)c1=O', '800 nM'),
  ('COc1c(O)c(=O)n(C)c2cc(N)ccc12', '810 nM');
